# Tested on: HOP-62 Cell line
# method-notes: MTT cell proliferation assay, HOP-62 Cell line
# Type: cell-based
# experimental-parameters: Homo sapiens; HOP-62, 0.1 μM, 72 h, MTT
observation-type: viability at 0.1 µM (%)
Give bare numbers, in %.

Please review the entries below; each comes with its answer.
COc1ccc(Nc2nc(N)c(-c3nc4ccccc4[nH]3)s2)cc1 [Molecule S4-M2] = 93.5
Nc1nc(Nc2ccc(Cl)cc2)sc1-c1nc2ccccc2[nH]1 [Molecule S4-M5] = 92.6
Cc1ccc(Nc2nc(N)c(-c3nc4cc(C)ccc4[nH]3)s2)cc1 [Molecule S4-M14] = 95.1
COc1ccc(Nc2nc(N)c(-c3nc4cc(C)ccc4[nH]3)s2)cc1 [Molecule S4-M11] = 101
COc1cc2ncnc(Nc3ccc(F)c(Cl)c3)c2cc1OCCCN1CCOCC1 [Gefitinib, reference compound] = 43.7

Could you tell me viability at 0.1 µM for each of these compounds? They are listed below.
1. Cc1cc(C)c(Nc2nc(N)c(-c3nc4ccccc4[nH]3)s2)c(C)c1 [Molecule S4-M6]
2. Cc1ccc2[nH]c(-c3sc(Nc4cccc(C(F)(F)F)c4)nc3N)nc2c1 [Molecule S4-M13]
3. Nc1nc(Nc2ccc([N+](=O)[O-])cc2)sc1-c1nc2ccccc2[nH]1 [Molecule S4-M3]
4. Cc1ccc2[nH]c(-c3sc(Nc4ccc(Cl)cc4)nc3N)nc2c1 [Molecule S4-M12]

Output line:
1: 100; 2: 96.9; 3: 94.4; 4: 95.4

Could you tell me viability at 0.1 µM for each of these compounds? They are listed below.
1. Cc1ccc2[nH]c(-c3sc(Nc4ccccc4)nc3N)nc2c1 [Molecule S4-M10]
2. Nc1nc(Nc2ccc(Br)cc2F)sc1-c1nc2ccccc2[nH]1 [Molecule S4-M7]

Output line:
1: 100; 2: 101

---

# System: MDA-MB-436 Cell line
# method-notes: MTT cell proliferation assay, MDA-MB-436 Cell line
# Type: cell-based
# experimental-parameters: Homo sapiens; MDA-MB-436, 0.01 μM, 72 h, MTT
# Procedure: 1. Protocol Followed for Anti Cancer Activity and Results, Cell Proliferation Assays: Cell lines used herein were purchased from NCCS (National Center for Cell Sciences) Pune, India. […] At the end of the incubation period (72 h at 37° C.), cell viability was determined by a tetrazolium dye, MTT (3-(4,5-dimethylthiazol-2-yl)-2,5-diphenyl tetrazolium bromide) (Promega, USA). The formazan crystals were dissolved in DMSO, and the absorbance at 600 nm was recorded using an ELISA plate reader. […]
Hi there, I'd appreciate the recorded viability at 0.01 µM for every entry that follows.
Numbers only, in %.

Cc1ccc(Nc2nc(N)c(-c3nc4ccccc4[nH]3)s2)cc1 = 91
COc1ccc(Nc2nc(N)c(-c3nc4c(C)cccc4[nH]3)s2)cc1 = 96.1
Cc1ccc2[nH]c(-c3sc(Nc4cccc(C(F)(F)F)c4)nc3N)nc2c1 = 98.4
COc1cc2ncnc(Nc3ccc(F)c(Cl)c3)c2cc1OCCCN1CCOCC1 [Gefitinib, reference compound] = 55.2
Nc1nc(Nc2cccc(C(F)(F)F)c2)sc1-c1nc2ccccc2[nH]1 = 101
Cc1cc(C)c(Nc2nc(N)c(-c3nc4ccccc4[nH]3)s2)c(C)c1 = 116
Cc1ccc2[nH]c(-c3sc(Nc4ccccc4)nc3N)nc2c1 = 92.9
Nc1nc(Nc2ccccc2[N+](=O)[O-])sc1-c1nc2ccccc2[nH]1 = 69.7
Nc1nc(Nc2ccc(Br)cc2F)sc1-c1nc2ccccc2[nH]1 = 100
COc1ccc(Nc2nc(N)c(-c3nc4ccccc4[nH]3)s2)cc1 = 113

Could you tell me viability at 0.01 µM for each of these compounds? They are listed below.
1. COc1ccc(Nc2nc(N)c(-c3nc4cc(C)ccc4[nH]3)s2)cc1
2. Nc1nc(Nc2ccc([N+](=O)[O-])cc2)sc1-c1nc2ccccc2[nH]1
3. Cc1ccc2[nH]c(-c3sc(Nc4ccc(Cl)cc4)nc3N)nc2c1
4. Nc1nc(Nc2ccccc2)sc1-c1nc2ccccc2[nH]1
5. Cc1ccc(Nc2nc(N)c(-c3nc4cc(C)ccc4[nH]3)s2)cc1

Output line:
1. 96.8
2. 99.6
3. 94.1
4. 82.8
5. 99

Input line: Look up viability at 0.01 µM: Nc1nc(Nc2ccc(Cl)cc2)sc1-c1nc2ccccc2[nH]1
Output line: 99.8
